# Tested on: U2OS
# experiment.summary: Multiplex assay against U2OS
# Format: toxicity, cell-based
# condition.label: human, 12 h, 10 µM, compound concentration 10 uM, replicate 2
Quick rule for you: Population Membrane Permeable-Phenotype (%) at 7% or higher means Criterion met, lower means Criterion not met.

Prompt: Is it the case that CC(C)(C)c1ccc(S(=O)(=O)Nc2ccc(Cl)cc2C(=O)c2cc[n+]([O-])cc2)cc1 [VERCIRNON] has Population Membrane Permeable-Phenotype (%) reaching or exceeding 7%?
Completion: Criterion met

Prompt: Decide: Population Membrane Permeable-Phenotype (%) of COc1ccc2c(c1)C(C(=O)N(Cc1ccc(N(C)C)cc1)c1ccc(C(C)C)cc1)CCC2.Cl (centres undefined) >= 7%?
Completion: Criterion met

Prompt: Is it the case that Cl.Clc1ccc2nsnc2c1NC1=NCCN1 [TIZANIDINE HYDROCHLORIDE] has Population Membrane Permeable-Phenotype (%) reaching or exceeding 7%?
Completion: Criterion met

Prompt: Could you verify whether the entry CCCC(CCC)C(=O)O [VALPROIC ACID] shows Population Membrane Permeable-Phenotype (%) of no less than 7%?
Completion: Criterion not met

Prompt: Determine whether measured Population Membrane Permeable-Phenotype (%) meets or exceeds 7% for CSCC[C@H](NC=O)C(=O)N[C@@H](CC(C)C)C(=O)N[C@@H](Cc1ccccc1)C(=O)O
Completion: Criterion not met

Prompt: Say whether CNC[C@H](O)c1ccc(O)c(O)c1 [EPINEPHRINE] shows Population Membrane Permeable-Phenotype (%) of 7% or more.
Completion: Criterion not met

Prompt: Confirm if Population Membrane Permeable-Phenotype (%) reported for the compound O=C(O)c1cc2ccccc2c(Cc2c(O)c(C(=O)O)cc3ccccc23)c1O [PAMOIC ACID] is 7% or above.
Completion: Criterion not met

----------
# System: Fibroblast
# experiment.summary: Multiplex assay against human fibroblast
# Format: toxicity, cell-based
# condition.label: 48 h, 1 µM, compound concentration 1 uM, replicate 2
Exercise: for every item that follows, state its recorded Population Mitotic Cells (%).
A number alone suffices; assume %.

Prompt: Fill in: Population Mitotic Cells (%) of CN(C)CCCc1cc(C(=O)Nc2ccc(-c3ccncc3)cc2)ccc1O.Cl.Cl is ___
Completion: 50

Prompt: # lookup: Population Mitotic Cells (%) of CC1(COc2ccc3c(c2)ncn3-c2ccc3cccc(N4CCC(N)CC4)c3n2)COC1
Completion: 80

Prompt: Bench note: what Population Mitotic Cells (%) did O=C(O)c1cc2ccccc2c(Cc2c(O)c(C(=O)O)cc3ccccc23)c1O show?
Completion: 61

Prompt: Population Mitotic Cells (%) for COc1cc(C(=O)N(CCCc2ccccc2)Cc2ccc(CC(=O)O)cc2)cc(OC)c1C ?
Completion: 47

Prompt: For the compound CSc1ccccc1N1CCN(CCCCCC(=O)NC2CCCc3ccccc32)CC1.Cl (stereo not drawn) , what Population Mitotic Cells (%) is on record?
Completion: 56

Prompt: Param item = O=C(NCC(=O)N1CC[C@H](N[C@H]2CC[C@@](O)(c3ccc(-c4ncccn4)cn3)CC2)C1)c1cccc(C(F)(F)F)c1 ; retrieve measured Population Mitotic Cells (%).
Completion: 50

Prompt: # lookup: Population Mitotic Cells (%) of O=S(=O)(c1ccccc1)c1cnc2c(N3CCNCC3)cccc2c1 [INTEPIRDINE]
Completion: 48

Prompt: So what does the record say about Population Mitotic Cells (%) for CCCC(CCC)C(=O)O ?
Completion: 51

Prompt: Suppose we examine the compound Cc1nc2ccc(Oc3ccc(F)cc3)cc2c(=O)n1C[C@H]1CCCN(C(C)C)C1.Cl ; what Population Mitotic Cells (%) value has been reported?
Completion: 57

Prompt: Requested read-out: Population Mitotic Cells (%). Entry: CC(=O)NCCc1c(Cc2ccccc2)[nH]c2ccccc12
Completion: 60

Prompt: Please report the recorded Population Mitotic Cells (%) for CCOc1c2c(c(OCC)c3ncccc13)CN(c1ccc(CS(=O)(=O)NC(=O)Cc3ccccc3OC)cc1C)C2=O .
Completion: 33

Prompt: Entry N#Cc1c(N)nc(SCc2csc(-c3ccc(Cl)cc3)n2)c(C#N)c1-c1ccc(OCCO)cc1 : reported Population Mitotic Cells (%) = ?
Completion: 30

Prompt: Requested field: Population Mitotic Cells (%). Item: Cc1ccc(F)cc1C(=O)Nc1ccc(C(=O)N2Cc3cccn3Cc3ccccc32)c(Cl)c1
Completion: 50

Prompt: // lookup Population Mitotic Cells (%) for CN(C)c1ccnc2sc3c(=O)n(N4CCCCCC4)cnc3c12
Completion: 63

Prompt: Fill blank: measured Population Mitotic Cells (%) of the compound COc1c(C)cc(NC(=O)c2nn(Cc3ccc(F)cc3)c3c2CN(C(=O)c2ccc[nH]2)C[C@]3(C)C(N)=O)cc1C is ____.
Completion: 29

Prompt: Data request, read-out Population Mitotic Cells (%), for Cc1ccc(/C(=C\CN2CCCC2)c2ccccn2)cc1
Completion: 48

Prompt: What value of Population Mitotic Cells (%) has been recorded for this entry: c1cc(OCCCN2CCCCC2)ccc1CN1CCCCC1
Completion: 55

Prompt: Name the recorded Population Mitotic Cells (%) for O=C(O)Cc1ccccc1Nc1c(Cl)cccc1Cl .
Completion: 42

Prompt: # input compound: C[C@@H]1C[C@H]2[C@@H]3CCC4=CC(=O)C=C[C@]4(C)[C@@]3(F)[C@@H](O)C[C@]2(C)[C@@]1(O)C(=O)CO ; wanted: its Population Mitotic Cells (%)
Completion: 62

Prompt: Tell me the measured Population Mitotic Cells (%) of C[C@H]1[C@H]2CC[C@H]3[C@@H]4CC=C5C[C@@H](N(C)C)CC[C@]5(C)[C@H]4CC[C@]23CN1C , please.
Completion: 52

Prompt: Entry under review: CC(C)(C)c1ccc(S(=O)(=O)Nc2ccc(Cl)cc2C(=O)c2cc[n+]([O-])cc2)cc1 . Reported Population Mitotic Cells (%)?
Completion: 37

Prompt: I have this compound here, CCNC1(C(N)=O)CCN(c2ncnc3c2nc(-c2ccccc2Cl)n3-c2ccc(Cl)cc2)CC1 , and I need its recorded Population Mitotic Cells (%).
Completion: 40

Prompt: Quick check: Population Mitotic Cells (%) of COc1cc(NC(=O)CCN2CCC(OC(=O)Nc3ccccc3-c3ccccc3)CC2)c(Cl)cc1CNC[C@H](O)c1ccc(O)c2[nH]c(=O)ccc12 ?
Completion: 33

Prompt: What does the data say about its Population Mitotic Cells (%)? Entry: N[C@@]1(C(=O)O)CO[C@H]2[C@H](C(=O)O)[C@H]21
Completion: 50

Prompt: Data request, read-out Population Mitotic Cells (%), for Cc1ccccc1C(=O)Nc1ccc(C(=O)N2CCCC(N(C)C)c3ccccc32)cc1.Cl (stereo not drawn)
Completion: 46

Prompt: Population Mitotic Cells (%) for CN1CCN(c2nc3cc(C(F)(F)F)ccc3n3cccc23)CC1.O=C(O)/C=C\C(=O)O.O=C(O)/C=C\C(=O)O ?
Completion: 57

Prompt: # get_value(readout='Population Mitotic Cells (%)', item= Cl.Clc1ccc2nsnc2c1NC1=NCCN1 [TIZANIDINE HYDROCHLORIDE] )
Completion: 44

Prompt: Sample CCCn1c(=O)c2[nH]c(C3CCCC3)nc2n(CCC)c1=O — what was its Population Mitotic Cells (%)?
Completion: 52

----------
For each of the compounds below, state its Population Mitochondria Different-Phenotype (%).
# Tested on: U2OS
# experiment.summary: Multiplex assay against U2OS
# Type: toxicity, cell-based
# condition.label: human, 24 h, 1 µM, compound concentration 1 uM, replicate 1
Write down the value, and be sure its unit follows.

Prompt: Recall the recorded Population Mitochondria Different-Phenotype (%) for O=C1COc2nccc(-c3ccccc3F)c2CN1Cc1cc(C(F)(F)F)cc(C(F)(F)F)c1 with U2OS and state it.
Completion: 3%

Prompt: Recall the recorded Population Mitochondria Different-Phenotype (%) for Cc1ccc(C(C)(O)c2nc3ccccc3s2)c(C)c1 (configuration not stated) with U2OS and state it.
Completion: 0%

Prompt: Missing value: Population Mitochondria Different-Phenotype (%), U2OS, entry C[C@H]1[C@H]2CC[C@H]3[C@@H]4CC=C5C[C@@H](N(C)C)CC[C@]5(C)[C@H]4CC[C@]23CN1C [CONESSINE] . Fill in?
Completion: 1%

Prompt: Item: N[C@@]1(C(=O)O)CO[C@H]2[C@H](C(=O)O)[C@H]21 [LY-379268] Test system: U2OS Read-out: Population Mitochondria Different-Phenotype (%) Value: ?
Completion: 1%

Prompt: What reported Population Mitochondria Different-Phenotype (%) corresponds to Cl.Clc1ccc2nsnc2c1NC1=NCCN1 [TIZANIDINE HYDROCHLORIDE] on U2OS?
Completion: 2%

Prompt: Identify the measured Population Mitochondria Different-Phenotype (%) of CC(C)(C)c1ccc(S(=O)(=O)Nc2ccc(Cl)cc2C(=O)c2cc[n+]([O-])cc2)cc1 [VERCIRNON] for U2OS.
Completion: 5%

Prompt: Which Population Mitochondria Different-Phenotype (%) is reported with U2OS for this entry: CC[C@H]1OC(=O)[C@H](C)[C@@H](O[C@H]2C[C@@](C)(OC)[C@@H](O)[C@H](C)O2)[C@H](C)[C@@H](O[C@@H]2O[C@H](C)C[C@H](N(C)C)[C@H]2O)[C@@]2(C)CC(C)=C(O2)[C@H](C)[C@@H](O)[C@]1(C)O ?
Completion: 15%

Prompt: Please state recorded Population Mitochondria Different-Phenotype (%) (tested on U2OS) of Cc1ccccc1C(=O)Nc1ccc(C(=O)N2CCCC(N(C)C)c3ccccc32)cc1.Cl (configuration not stated)
Completion: 3%

Prompt: Give the reported Population Mitochondria Different-Phenotype (%) for CSCC[C@H](NC=O)C(=O)N[C@@H](CC(C)C)C(=O)N[C@@H](Cc1ccccc1)C(=O)O (system: U2OS).
Completion: 3%

Prompt: Param readout = Population Mitochondria Different-Phenotype (%); param system = U2OS; param query = CC1(COc2ccc3c(c2)ncn3-c2ccc3cccc(N4CCC(N)CC4)c3n2)COC1 [CRENOLANIB] ; response: value
Completion: 62%

Prompt: Enter reported Population Mitochondria Different-Phenotype (%) observed with U2OS for C[C@H](NC(=O)c1c(C(F)F)nn(C)c1Oc1cccc(C(F)(F)F)c1)c1ccc(C(=O)O)cc1 [PALUPIPRANT]
Completion: 1%

Prompt: Query for U2OS: what Population Mitochondria Different-Phenotype (%) does the record show for CC(=O)NCCc1c(Cc2ccccc2)[nH]c2ccccc12 [LUZINDOLE] ?
Completion: 3%

Prompt: Can you look up Population Mitochondria Different-Phenotype (%) on U2OS for CN(C)c1ccnc2sc3c(=O)n(N4CCCCCC4)cnc3c12 ?
Completion: 3%

Prompt: State its Population Mitochondria Different-Phenotype (%) on U2OS: CCCn1c(=O)c2[nH]c(C3CCCC3)nc2n(CCC)c1=O
Completion: 3%

Prompt: Lookup: Population Mitochondria Different-Phenotype (%) / U2OS / C[C@@H]1C[C@H]2[C@@H]3CCC4=CC(=O)C=C[C@]4(C)[C@@]3(F)[C@@H](O)C[C@]2(C)[C@@]1(O)C(=O)CO [DEXAMETHASONE]
Completion: 2%

Prompt: Item: CN(C)CCCc1cc(C(=O)Nc2ccc(-c3ccncc3)cc2)ccc1O.Cl.Cl Test system: U2OS Read-out: Population Mitochondria Different-Phenotype (%) Value: ?
Completion: 2%

Prompt: So what Population Mitochondria Different-Phenotype (%) did COc1cc(NC(=O)CCN2CCC(OC(=O)Nc3ccccc3-c3ccccc3)CC2)c(Cl)cc1CNC[C@H](O)c1ccc(O)c2[nH]c(=O)ccc12 [BATEFENTEROL] get with U2OS?
Completion: 9%
